Biological target: T1, Mouse latent myostatin (mouse, UniProt O08689 26-267; O08689 268-376)
T1 construct: Latent form = complex of two propeptides and the mature dimer
T1 sequence 1: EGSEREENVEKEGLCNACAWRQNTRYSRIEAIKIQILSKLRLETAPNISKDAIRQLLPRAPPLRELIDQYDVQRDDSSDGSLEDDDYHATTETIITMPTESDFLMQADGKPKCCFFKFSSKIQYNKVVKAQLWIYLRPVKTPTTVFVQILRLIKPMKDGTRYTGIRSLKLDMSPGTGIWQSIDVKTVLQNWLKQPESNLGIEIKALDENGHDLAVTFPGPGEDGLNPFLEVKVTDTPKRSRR
T1 sequence 2: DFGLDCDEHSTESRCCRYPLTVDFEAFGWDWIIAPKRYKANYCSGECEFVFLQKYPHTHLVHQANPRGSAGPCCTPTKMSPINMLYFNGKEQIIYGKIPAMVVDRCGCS
Assay: SPR (BIACORE T200) 37C, pH 7.4, antibody captured by ProA/G
// Kd lookup, one value per entry
Write it as a number; the unit nM goes unstated.

>  <Binder>
MS_M103205H1046-SG1/M103202L889-SK1 (antibody, human IgG1, kappa, V domains shown, also called MS1032LO10-SG1) VH: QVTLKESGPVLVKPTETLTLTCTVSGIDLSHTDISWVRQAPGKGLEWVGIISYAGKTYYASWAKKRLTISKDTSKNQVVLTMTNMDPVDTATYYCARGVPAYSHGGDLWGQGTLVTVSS VL: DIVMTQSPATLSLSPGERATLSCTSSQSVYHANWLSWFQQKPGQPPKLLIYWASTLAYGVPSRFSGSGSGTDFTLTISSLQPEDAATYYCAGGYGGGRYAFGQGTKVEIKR

>  <Observed Value>
0.334

$$$$
>  <Binder>
MS_M103205H1047-SG1/M103202L889-SK1 (antibody, human IgG1, kappa, V domains shown, also called MS1032LO11-SG1) VH: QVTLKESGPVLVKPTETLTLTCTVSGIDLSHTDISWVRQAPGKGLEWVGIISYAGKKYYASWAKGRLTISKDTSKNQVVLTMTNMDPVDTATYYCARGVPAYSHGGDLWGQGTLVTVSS VL: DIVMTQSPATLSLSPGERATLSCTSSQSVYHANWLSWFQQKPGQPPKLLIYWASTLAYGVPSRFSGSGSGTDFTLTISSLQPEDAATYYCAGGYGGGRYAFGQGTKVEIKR

>  <Observed Value>
0.362

$$$$

Measured Kd of MS_M103205H1004-SG1/M103202L889-SK1 (antibody, human IgG1, kappa, V domains shown, also called MS1032LO07-SG1) VH: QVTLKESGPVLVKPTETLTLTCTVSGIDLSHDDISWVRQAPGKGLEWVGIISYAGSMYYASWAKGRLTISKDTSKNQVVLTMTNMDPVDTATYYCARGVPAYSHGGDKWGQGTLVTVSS VL: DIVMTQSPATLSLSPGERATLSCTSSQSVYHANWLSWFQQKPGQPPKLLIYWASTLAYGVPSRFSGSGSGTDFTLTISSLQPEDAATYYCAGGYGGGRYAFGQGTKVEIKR : 0.319

Short answer for MS_M103245H1233-SG1/M103202L1045-SK1 (antibody, human IgG1, kappa, V domains shown, also called MS1032LO23-SG1) VH: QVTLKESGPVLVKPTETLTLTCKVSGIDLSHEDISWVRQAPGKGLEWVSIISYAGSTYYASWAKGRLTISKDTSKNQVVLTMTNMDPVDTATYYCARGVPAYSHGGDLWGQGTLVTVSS VL: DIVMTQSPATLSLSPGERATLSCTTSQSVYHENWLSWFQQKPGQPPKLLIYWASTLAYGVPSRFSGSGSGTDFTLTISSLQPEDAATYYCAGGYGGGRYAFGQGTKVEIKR : Kd was 0.266
